- Test system: Wolbachia pipientis
- Test Summary: Anti-Wolbachia Cell-Based Screen
- Assay type: functional
- Design: scale not given: in the data most compounds retested in dose-response had high values
- Test Settings: 5 µM
Hit rate of the full screen: of about 48,000 compounds, about 13,000 (27%) showed an effect of 50% or more. The list shows a part of the results.
Property Name: Percent Effect (%)
State just the number; it will be interpreted in %.

# example entries with known answers
Request: Dear colleague, I am looking for the recorded Percent Effect of the following molecule: O=C(NCc1ccc(CN2CCCC2)cc1)NCc1ccon1
Result: -9.348

Request: And then CC(C)(C)C(=O)NCCC(=O)NC(C)(C)c1ccc2c(c1)OCCO2 , what is it?
Result: 1.419

Request: And then CCCNC(=O)NC(=O)CNC(C)(C)c1ccc2c(c1)OCCO2 , what is it?
Result: 109.8

Request: And then CCCNC(=O)NC(=O)CNC(C)(C)c1ccc2c(c1)OCO2 , what is it?
Result: 110.6

Request: And then CNc1nc(C)cc(NC2CCCN(C3Cc4ccccc4C3)C2)n1 (stereo unspecified) , what is it?
Result: 43.21

Others:
Request: Dear colleague, I am looking for the recorded Percent Effect of the following molecule: CCN(CC(=O)N(C)C)C(=O)C(C)(C)c1ccc2c(c1)OCCO2
Result: -3.526

Request: And then Cc1cc(C)nc(Nc2cccc(C3CCCN(CCO)C3)n2)n1 (stereo unspecified) , what is it?
Result: 75.7

Request: And then CNc1cc(C)nc(NC2CCCN(C3Cc4ccccc4C3)C2)n1 (stereo unspecified) , what is it?
Result: 9.514

Request: And then CC(C)(NCc1cccc(C#N)c1)c1ccc2c(c1)OCO2 , what is it?
Result: 0.8425

Request: And then Cc1cc(C)nc(Nc2cccc(C3CCCN(C)C3)n2)n1.O=CO (stereo unspecified) , what is it?
Result: -4.261

Request: And then CC(C)(NCc1ccc(C#N)cc1)c1ccc2c(c1)OCO2 , what is it?
Result: 0.339

====

- Tested on: Wolbachia pipientis
- Test Summary: Anti-Wolbachia Cell-Based Screen
- Format: functional
- Design: scale not given: in the data most compounds retested in dose-response had high values
- Test Settings: 5 µM
Out of some 48,000 compounds screened, about 13,000 (27%) showed an effect of 50% or more. The list shows a part of the results.
The compounds listed here are annotated with their Percent Effect.
State just the number; it will be interpreted in %.

Request: Dear colleague, I am looking for the recorded Percent Effect of the following compound: O=C(CN1CCCCC1Cn1cncn1)NCCc1ccc(F)cc1 (stereo not drawn)
Result: -1.768

Request: And then CN(Cc1ccc(CCC(C)(C)O)cc1)Cc1cccc(O)c1 , what is it?
Result: -7.089

Request: And then CCN1CCN(C2CCN(Cc3nc4ccccc4o3)CC2)C1=O , what is it?
Result: -0.2621

Request: And then CO[C@@H]1CN(c2ccccc2)S(=O)(=O)[C@@]12CCN(C(=O)N(C)C)C2 , what is it?
Result: 88.6

Request: And then CO[C@@H]1CN(c2ccccc2)S(=O)(=O)[C@@]12CCNC2 , what is it?
Result: 127.8

====

- Test system: Wolbachia pipientis
- Test Summary: Anti-Wolbachia Cell-Based Screen
- Assay type: functional
- Set-up: scale not given: in the data most compounds retested in dose-response had high values
- Test Settings: 5 µM
In all, about 48,000 compounds went through this assay and about 13,000 (27%) showed an effect of 50% or more. Some of the results follow.
Property Name: Percent Effect
Express your answer as a number followed by its unit.

Request: Dear colleague, I am looking for the recorded Percent Effect of the following compound: Cc1cc(=O)n(C)cc1NC(=O)Cc1ccc(C(F)(F)F)cc1
Result: -20.5%

// next entry
Request: Dear colleague, I am looking for the recorded Percent Effect of the following compound: Cc1cnn(CC2CN(CCc3ccncc3)CCO2)c1 (centres undefined)
Result: -9.167%

====

- Test system: Wolbachia pipientis
- Test Summary: Anti-Wolbachia Cell-Based Screen
- Type: functional
- Design: scale not given: in the data most compounds retested in dose-response had high values
- Test Settings: 5 µM
About 13,000 (27%) of roughly 48,000 compounds showed an effect of 50% or more. The list shows a part of the results.
The compounds listed here are annotated with their Percent Effect.
Express your answer as a number followed by its unit.

# example entries with known answers
Request: Dear colleague, I am looking for the recorded Percent Effect of the following compound: CC(C(=O)Nc1ncccn1)N1CCC(n2ccnc2)CC1 (stereo unspecified)
Result: -2.043%

Request: And then CCC1CCCCN1Cc1ncc(-c2ccc(OC)cc2)o1 (stereo unspecified) , what is it?
Result: -15.61%

Request: And then Oc1ccc(N2CCN(Cc3cc4c(cc3Br)OCCO4)CC2)cc1 , what is it?
Result: -10.73%

Request: And then COc1ccc(Cl)cc1NCC(=O)N(Cc1ccncc1)C1CC1 , what is it?
Result: 10.17%

Others:
Request: Dear colleague, I am looking for the recorded Percent Effect of the following compound: COC(=O)CCNC(=O)c1c[nH]cc1-c1cccc(OC)c1
Result: 3.352%

Request: And then CCOC(=O)CN(CC(F)(F)F)C(=O)c1nc(C)n2ccccc12 , what is it?
Result: -24.45%

Request: And then Cc1ccc(NC2CCN(C(=O)CCc3ccncc3)CC2)nn1 , what is it?
Result: 118.5%

Request: And then Cc1cccc(OC2CCN(C(=O)Cn3ccc4ccccc43)CC2)n1 , what is it?
Result: 1.872%

Request: And then CC(=O)N1CCC(c2nccnc2Nc2ncc(C)s2)CC1 , what is it?
Result: 69.11%

Request: And then Cc1cc(CS(=O)(=O)c2ccccc2)no1 , what is it?
Result: -12.79%

Request: And then Cc1ccc(NC2CCN(C(=O)CCc3nccs3)CC2)nn1 , what is it?
Result: 139%

Request: And then CCC1CCCCN1Cc1ncc(C(C)(C)C)o1 (stereo unspecified) , what is it?
Result: 88.88%

Request: And then Cc1cnc(NC(=O)N2CCCC2)s1 , what is it?
Result: 11.08%

Request: And then Cc1cnc(NC(=O)N2CCCCCC2)s1 , what is it?
Result: -6.378%

Request: And then CCN(CC)CC(=O)NCCc1csc(N2CCCC2)n1 , what is it?
Result: 7.841%

Request: And then CCn1nc(C)cc1C(=O)N1CCOc2ccc(OC)cc21 , what is it?
Result: 4.6%

Request: And then O=C1OCCN1CCNCC1(O)CCCN(CCC2CCCCC2)C1=O (stereo unspecified) , what is it?
Result: 3.585%

Request: And then Cc1cnn(CC2CCCCN2Cc2cc(C)on2)c1 (stereo unspecified) , what is it?
Result: 27.16%

Request: And then CCc1csc(CNc2cc(C)nc(-c3cccnc3)n2)n1 , what is it?
Result: 113.3%

Request: And then COc1cccc(CNc2cc(C)nc(-c3ccncc3)n2)c1OC , what is it?
Result: -14.13%

Request: And then Cc1ccc(NC2CCN(C(=O)c3cc[nH]n3)CC2)nn1 , what is it?
Result: -5.889%

====

- System: Wolbachia pipientis
- Test Summary: Anti-Wolbachia Cell-Based Screen
- Type: functional
- Parameters: scale not given: in the data most compounds retested in dose-response had high values
- Test Settings: 5 µM
Among all 48,000 compounds or so, about 13,000 (27%) showed an effect of 50% or more. Some of the results follow.
Property Name: Percent Effect (%)
State just the number; it will be interpreted in %.

# example entries with known answers
Request: Dear colleague, I am looking for the recorded Percent Effect of the following compound: CN(C)C(=O)c1cc2c(s1)CCN(C(=O)CCCN1CCCCC1)C2
Result: -52.48

Request: And then CCC(=O)NCC(=O)NCC(C)(C)c1cccc(Br)c1 , what is it?
Result: 13.04

Request: And then COCC(C)NCc1ccc2[nH]c(C)c(C)c2c1 (configuration not stated) , what is it?
Result: 5.235

Request: And then CCOc1ncccc1CNC(=O)Nc1ccccc1 , what is it?
Result: 95.65

Request: And then O=C1CC[C@H]2CN(c3ncccc3F)CC[C@H]2N1CCc1ccccc1 , what is it?
Result: 4.939

// next entry
Request: Dear colleague, I am looking for the recorded Percent Effect of the following compound: CC[C@@H](NC(C)=O)C(=O)NCc1cccnc1Oc1ccccc1OC
Result: 5.567

====

The compounds listed here are annotated with their Percent Effect.
- Test system: Wolbachia pipientis
- Test Summary: Anti-Wolbachia Cell-Based Screen
- Assay type: functional
- Parameters: scale not given: in the data most compounds retested in dose-response had high values
- Test Settings: 5 µM
In all, about 48,000 compounds went through this assay and about 13,000 (27%) showed an effect of 50% or more. This is one part of the list.
State just the number; it will be interpreted in %.

Request: Dear colleague, I am looking for the recorded Percent Effect of the following compound: CCCOc1ccc(Cl)cc1CNc1ncnc2oc(C)nc12
Result: -1.031

Request: And then Cc1nc(C(C)(C)NC(=O)Nc2ccccc2)no1 , what is it?
Result: -20.84

Request: And then CC(C)Cc1noc(CN2CCC(C(=O)NCC3CCCO3)CC2)n1 (stereo not drawn) , what is it?
Result: 11.96

Others:
Request: Dear colleague, I am looking for the recorded Percent Effect of the following compound: CCc1noc(CNc2nc(-c3cccnc3)nc3c2CCNCC3)n1
Result: 3.724

Request: And then COc1ccc(C(=O)N(C)Cc2nnc3ccccn23)cc1 , what is it?
Result: 104.5

Request: And then CC(C)(C)C(=O)N1C[C@@H](F)[C@@H](OCc2nc3ncccc3[nH]2)C1 , what is it?
Result: -11.47

Request: And then CCn1cc(NC(=O)C2CCN(Cc3noc(C4CC4)n3)CC2)cn1 , what is it?
Result: 113.1

Request: And then O=C(Nc1ccc(F)cc1)C1CCN(Cc2noc(C3CC3)n2)CC1 , what is it?
Result: -24.67
